meta.source: patent US8785478B2

- Tested on: subgenomic genotype 2a (JFH-1) replicon cell line
- assaySummary: HCV replicon assay, genotype 2a (Renilla luciferase)
- Assay type: cell-based
- conditionContext: Hepatitis C virus; genotype 2a replicon; read-out: G2a (EC50 μM)
The threshold is 0.04 µM. Values of EC50 beneath it are tagged label 1; values meeting or exceeding it are tagged label 0.

>>> print(df.to_string())
                                   compound  assignedcategory
0  CNC(=O)c1c2cc(C3CC3)c(N(CCC3COC3)S(C)(=O)=O)cc2nn1-c1ccc(Cl)cn1 [Compound 19]           label 1
1  CCN(c1cc2nn(-c3ccc(C)nc3)c(C(=O)NC)c2cc1C1CC1)S(C)(=O)=O [Compound A, reference compound]           label 0
2  CNC(=O)c1c2cc(C3CC3)c(N(C)S(C)(=O)=O)cc2nn1-c1ccc(C)cn1 [Compound 6]           label 1
3  CCN(c1cc2nn(-c3ccc(C)cn3)c(C(=O)NC)c2cc1C1CC1)S(C)(=O)=O [Compound 5]           label 0
4  CNC(=O)c1c2cc(C3CC3)c(N(C)S(C)(=O)=O)cc2nn1-c1ccc(Cl)cn1 [Compound 9]           label 0
5  CNC(=O)c1c2cc(C3CC3)c(N(CCC3(C)COC3)S(C)(=O)=O)cc2nn1-c1ccc(C)cn1 [Compound 11]           label 0
6  CNC(=O)c1c2cc(C3CC3)c(N(CCC3COC3)S(C)(=O)=O)cc2nn1-c1ccc(C)cn1 [Compound 4]           label 0
7  CNC(=O)c1c2cc(C3CC3)c(N(CCC3(OC)COC3)S(C)(=O)=O)cc2nn1-c1ccc(C)cn1 [Compound 18]           label 0

====

- assaySummary: Cytotoxicity analysis (MTT)
- Type: cell-based
- conditionContext: genotype 1b replicon cells, three days, read-out: G1b (CC50 μM)
metric: CC50 at 3 days

In [3]: df
Out[3]:
                                   compound   result
0  CCN(c1cc2nn(-c3ccc(C)nc3)c(C(=O)NC)c2cc1C1CC1)S(C)(=O)=O [Compound A, reference compound]  > 50 µM
1  CNC(=O)c1c2cc(C3CC3)c(N(CCC3(OC)COC3)S(C)(=O)=O)cc2nn1-c1ccc(C)cn1  > 50 µM
2  CNC(=O)c1c2cc(C3CC3)c(N(CCC3(C)COC3)S(C)(=O)=O)cc2nn1-c1ccc(C)cn1  > 50 µM
3  CNC(=O)c1c2cc(C3CC3)c(N(C)S(C)(=O)=O)cc2nn1-c1ccc(Cl)cn1  > 50 µM
4  CNC(=O)c1c2cc(C3CC3)c(N(C)S(C)(=O)=O)cc2nn1-c1ccc(C)cn1  > 50 µM
5  CCN(c1cc2nn(-c3ccc(C)cn3)c(C(=O)NC)c2cc1C1CC1)S(C)(=O)=O  > 50 µM
6  CNC(=O)c1c2cc(C3CC3)c(N(CCC3COC3)S(C)(=O)=O)cc2nn1-c1ccc(C)cn1  > 50 µM
7  CCN(c1cc2nn(-c3ccc(Cl)cn3)c(C(=O)NC)c2cc1C1CC1)S(C)(=O)=O  > 50 µM
8  CNC(=O)c1c2cc(C3CC3)c(N(CCC3COC3)S(C)(=O)=O)cc2nn1-c1ccc(Cl)cn1  > 50 µM
